# target or test system: Serine/threonine-protein phosphatase 2A catalytic subunit alpha isoform (Bos taurus)
# Sequence (P67774 whole entry, canonical isoform): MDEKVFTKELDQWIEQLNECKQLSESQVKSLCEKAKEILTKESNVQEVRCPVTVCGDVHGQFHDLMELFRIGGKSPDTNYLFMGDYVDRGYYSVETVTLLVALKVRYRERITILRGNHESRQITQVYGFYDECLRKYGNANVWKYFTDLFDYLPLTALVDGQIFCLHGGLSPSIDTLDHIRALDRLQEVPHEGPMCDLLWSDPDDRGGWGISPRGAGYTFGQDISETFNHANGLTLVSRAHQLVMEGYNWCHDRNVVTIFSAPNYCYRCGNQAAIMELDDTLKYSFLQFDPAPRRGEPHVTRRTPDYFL
# test name: Inhibitory concentration against protein phosphatase 2A (PP2A) using pNPP assay
# Set-up: species or system Oryctolagus cuniculus
recorded metric: IC50

Examples from the recorded data:
CO[C@@H](Cc1ccccc1)[C@@H](C)/C=C(C)/C=C/[C@H](NC(C)=O)[C@H](C)C(=O)N1CCCC1    > 100 µM
CO[C@@H](Cc1ccccc1)[C@@H](C)/C=C(C)/C=C/[C@H](NC(C)=O)[C@H](C)C(=O)N1C[C@H](C(=O)O)C[C@H]1C(=O)O    > 100 µM
CO[C@@H](Cc1ccccc1)[C@@H](C)/C=C(C)/C=C/[C@H](NC(C)=O)[C@H](C)C(=O)N1[C@H](C(=O)O)CC[C@H]1C(=O)O    > 39 µM

Consider the compound shown here: "CO[C@@H](Cc1ccccc1)[C@@H](C)/C=C(C)/C=C/[C@H](NC(C)=O)[C@H](C)C(=O)N1C[C@H](C(=O)O)C[C@@H]1C(=O)O" What is its recorded IC50?
> 100 µM
